- assay_explanation: protein stability index of a GFP-peptide fusion (yeast GPS) (PSI 1-4); higher = more stable; sorted into four equal gates, so the index is relative within each strain
- conditions: pdr5∆
Record Condition met whenever protein stability index is at 3 or higher; record Condition not met when lower.

Decide: is the reported value of protein stability index for AKKQNYKLTNDEEGIFS [YCG1] equal to or greater than 3? Condition met

Decide: is the reported value of protein stability index for QSSAIGALQESVEAYLV [HHT1] equal to or greater than 3? Condition not met

Decide: is the reported value of protein stability index for SEVRKAVSIETALEHKV [FAS2] equal to or greater than 3? Condition not met

Decide: is the reported value of protein stability index for KIQFILEQMELSILKGD [RPN5] equal to or greater than 3? Condition not met

Decide: is the reported value of protein stability index for NGTVNNNSALSNVNSDI [RPT3] equal to or greater than 3? Condition not met

Decide: is the reported value of protein stability index for EKLITSKLLVPQKNVKI [PRE10] equal to or greater than 3? Condition not met

Decide: is the reported value of protein stability index for GHSQFTSHYQNYHPNAS [RPN4] equal to or greater than 3? Condition not met

Decide: is the reported value of protein stability index for DEQQREDNNDAVNSIMA [ECM29] equal to or greater than 3? Condition met

* * *

- assay_explanation: protein stability index of a GFP-peptide fusion (yeast GPS) (PSI 1-4); higher = more stable; sorted into four equal gates, so the index is relative within each strain
- conditions: ubr1∆
I'd be grateful if you could share measured protein stability index for these entries.
# print the numeric value only

Name the reported protein stability index value associated with the sequence TFQRVCQYMVACVPLLP [RPN1] 2.53

Name the reported protein stability index value associated with the sequence IALILAIQMVDPASFYL [SMC3] 1.98

Name the reported protein stability index value associated with the sequence LITSEMFDAFVSFYFED [SIN4] 2.93

Name the reported protein stability index value associated with the sequence HRCAIRSGALIKFKKCD [SSN2] 2.49

Name the reported protein stability index value associated with the sequence GIFGMDFYVVMNRPGAR [RPL11A] 2.24

Name the reported protein stability index value associated with the sequence QKMAKAKKQNRPLPQWI [RPL39] 3.14

Name the reported protein stability index value associated with the sequence DDYEDQDDDDYVDTATA [IRR1] 3.22

Name the reported protein stability index value associated with the sequence LQYLDKHIKNLEDDSLL [RPN12] 3.3

Name the reported protein stability index value associated with the sequence KPENKTDKVSLSQPVSA [SIR4] 2.14

Name the reported protein stability index value associated with the sequence ELAGGNASLTIEDEDEP [SMC1] 3.16

Name the reported protein stability index value associated with the sequence SKISQMAQNKTHIPQTN [YLR018C/POM34] 1.95

Name the reported protein stability index value associated with the sequence SKQDVEALIEFIYDTEK [FAS2] 3.08

Name the reported protein stability index value associated with the sequence NSNDSVFVGSGKGTGKT [BRR2] 3.33

Name the reported protein stability index value associated with the sequence IQTKEQVSINSNKILVY [YIL149C/MLP2] 2.96

Name the reported protein stability index value associated with the sequence KKLLEVHDIFSKIFNES [CDC53] 2.66

Name the reported protein stability index value associated with the sequence LLEKANNQQRLLLKKLD [SMC3] 2.39

Name the reported protein stability index value associated with the sequence DLDETTQTFNGSIFTHE [YML031W/NDC1] 2.92

Name the reported protein stability index value associated with the sequence SDAMSIDEEDKDSESFS [YCG1] 2.4

Name the reported protein stability index value associated with the sequence KIDLLSGQFYFRNPTPL [RGR1] 2.82

Name the reported protein stability index value associated with the sequence SASLHLNYGVYLNGTLI [RET1] 3.18

Name the reported protein stability index value associated with the sequence LVAAFIASLERELILAK [YCG1] 1.48

Name the reported protein stability index value associated with the sequence INYAFSMDEEFKNMDCI [SIR3] 3.32

Name the reported protein stability index value associated with the sequence DYPFTQLGYIENSFYKK [POP1] 3.44

Name the reported protein stability index value associated with the sequence TIITDCAFLLTKIKDAE [YJL039C/NUP192] 2.52

Name the reported protein stability index value associated with the sequence GSHLFSIHAHGSTDVGY [PUP1] 2.02

Name the reported protein stability index value associated with the sequence PSIPLVIIRRLKTRDWI [POP1] 2.53

Name the reported protein stability index value associated with the sequence ETFISSMTATADVLAMA [RIP1] 1.44

Name the reported protein stability index value associated with the sequence GLSMLAKLKELAEDVDD [RPC31] 2.95

Name the reported protein stability index value associated with the sequence TRGPFHFRAPSRILYKA [RPL16B] 2.27

Name the reported protein stability index value associated with the sequence KDKGVYVVTSDEHPKTL [SIR2] 2.98
